System: NCI-H322M lung
measurement-description: NCI-60 one-dose screen, 48 h (100 = growth as untreated, 0 = no growth, -100 = all killed)
condition-description: 10 µM unless noted
Compounds without any hit were thinned out: in the full panel of roughly 83,000, 20% have a hit.
Consider the following compounds and their measured growth readings.
Quick reminder: number only, in %, skip the unit.

smiles-str | growth, %
CC1=CNNc2c3ncnc-3ncn21 | 107
C=C1C(=O)O[C@H]2[C@H]1CC/C(Cn1cc(-c3ccccc3C(F)(F)F)nn1)=C\CC[C@@]1(C)O[C@@H]21 | 81.6
CC[C@]1(O)C[C@@H]2CN(Cc3c([nH]c4ccccc34)[C@@](C(=O)OC)(c3cc4c(cc3OC)N(C)[C@H]3[C@@](O)(C(=O)OC)[C@H](OC(C)=O)[C@]5(CC)[C@@H]6C[C@@H]6CN6CC[C@]43[C@@H]65)C2)C1 | 44.7

Note: attention shifts to another entry.
Entry COc1cc(/C=C\c2cc(OC)c(OC)c(OC)c2)cc(N/C=C\C(=O)c2c[nH]c3ccccc23)c1OC has what growth?
80.4

----------
System: RPMI-8226 leukemia
measurement-description: NCI-60 one-dose screen, 48 h
condition-description: 10 µM unless noted
About 83,000 compounds went through this panel and 20% of them were active in at least one assay; those are over-represented in the sample as a whole. Active and inactive are the calls of the source. The calls were made as follows: active = growth percent below 10; inactive = the rest.
Hi there, use one of these labels in your reply, thanks! yes for active, no for inactive

compound | class-assignment
COc1ccc2c(c1)C(C)Cc1c(N(C)C)ncnc1N2C (stereo not given) | no

Each compound tested received a call. Report the one for Cc1ccc(Cn2c(-c3cccs3)nc3ccccc32)cc1 .
no

Each compound tested received a call. Report the one for CCC1CCc2nc3sc(C(=O)Nc4ccccc4C)c(N)c3cc2C1 (stereo not given) .
yes

----------
System: ACHN renal
measurement-description: NCI-60 one-dose screen, 48 h
condition-description: 10 µM unless noted
About 83,000 compounds went through this panel and 20% of them were active in at least one assay; those are over-represented in the sample as a whole. Calls of active or inactive are those of the source. The calls were made as follows: active = growth percent below 10; inactive = the rest.
Hi there, use one of these labels in your reply, thanks! active, inactive

For orientation, consider the following solved cases.
compound | class-assignment
O=[N+]([O-])c1c(S(=O)(=O)O)cc2cc(S(=O)(=O)O)ccc2c1[N+](=O)[O-] | inactive
CC(C)[C@H](CO)Nc1nc(Nc2ccc(C(=O)NCCNS(=O)(=O)c3cccc4c(N(C)C)cccc34)c(Cl)c2)c2ncn(C(C)C)c2n1 | inactive

Each compound tested received a call. Report the one for O=C(NCCCN1CCN(CCCNC(=O)C2CCCCC2)CC1)C1CCCCC1 .
inactive

Each compound tested received a call. Report the one for Cc1cc2c(c(=O)o1)C(c1ccc(OC(=O)N3CCOCC3)cc1)C(C#N)=C(N)O2 (stereo not given) .
inactive

----------
System: SF-268 CNS
measurement-description: NCI-60 one-dose screen, 48 h (100 = growth as untreated, 0 = no growth, -100 = all killed)
condition-description: 10 µM unless noted
The panel holds about 83,000 compounds, 20% with a hit somewhere; the sample as a whole holds those more often.
recorded-metric: growth (%)
Quick reminder: number only, in %, skip the unit.

Reference set, count: 3
compound | growth, %
Cc1ccnc2nc(C(=O)OCC(=O)Nc3ccc(-c4ccccc4)cc3)nn12 | 113
COc1ccc(OC)c(NC(=O)c2cc(S(=O)(=O)N3CCc4ccccc43)ccc2OC)c1 | 95.9
CCCCC(N)(C(=O)O)C1CCCC1 (stereo unspecified) | 107

Param readout= growth; system= SF-268 CNS; entry= C#CCN1C(=O)/C(=c2\sc3n(c2=O)NC2C(N=3)N(CC)C(=O)N2CC)c2ccccc21 (stereo unspecified) ; returns value.
75.5

Param readout= growth; system= SF-268 CNS; entry= O=C1CCC(=O)N1Cc1ccccc1 ; returns value.
94.7

Param readout= growth; system= SF-268 CNS; entry= c1ccc(CCn2nnc3c(Nc4ccc(N5CCOCC5)cc4)ncnc32)cc1 ; returns value.
107
